meta.source: PubChem BioAssay

# procedure text: growth of efflux-deficient E. coli DRC39 – strain DRC39, OD650, 48 h, E. coli filamentation inducers, primary screen (AID 1179);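 note: screen aims at cell division blockers that make cells filament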
# conditions used: E. coli DRC39 delta-acrAB growth, higher = more signal, called active from +8 up or from −8 down
Consider the following compounds; for each one, report its z-score.
Respond numerically, and do not add a unit to the figure.

State the recorded z-score for this entry: C=CCNC(=O)[C@@H]1[C@H]2C(=O)O[C@H](c3ccccc3)[C@H](c3ccccc3)N2[C@H](c2ccc(OCCO)cc2)[C@@]12C(=O)N(C(=O)OCCOC)c1ccc(C#CCNC(N)=O)cc12 0.0924

State the recorded z-score for this entry: C=C(/C(=C/C[C@H](OC(C)=O)c1ccc(OCCO)cc1)c1cc(C(=O)OC)ccc1OC)C(C)C 0.232

State the recorded z-score for this entry: COC(=O)c1c2oc(c1C(=O)OC)C(=O)N[C@@H](C(C)C)Cn1cc(nn1)C1(CCCCC1)NC(=O)N[C@H](CO)CC2 1.11

State the recorded z-score for this entry: COCCOC(=O)N1C(=O)[C@@]2(c3cc(C#CCCO)ccc31)[C@H](c1ccc(OCCO)cc1)N1[C@H](c3ccccc3)[C@H](c3ccccc3)OC(=O)[C@H]1[C@@H]2C(N)=O 0.399

State the recorded z-score for this entry: C=C(C(=O)CC[C@H](OC(C)=O)c1ccccc1OCCO)C(C)C -0.573

State the recorded z-score for this entry: COc1ccc([C@H]2C[C@H]3C(I)=C[C@@H]2C(=O)[C@]32CO2)cc1 0.344

State the recorded z-score for this entry: CCCC[C@H]1C[C@@H]1[C@@H]1N(P(=O)(c2ccccc2)c2ccccc2)C[C@@](O)(c2ccccc2)CC12CC2 -0.412

State the recorded z-score for this entry: O=C1OCCC=C[C@H]2OC34C=CCN(Cn5nnc6ccccc65)C(=O)[C@H]3N(CCO)C(=O)[C@@H]4C12 (stereo partly drawn) -0.249

State the recorded z-score for this entry: Cc1ccc(S[C@]2(C(=O)O)CC(=O)N(Cc3ccccc3C(F)(F)F)[C@@H]2c2ccc(CO)cc2I)cc1 -0.367

State the recorded z-score for this entry: COC(=O)[C@@]1(Cc2ccc(OC)cc2)[C@H]2c3cc(C(=O)N4CCCC4)n(CCCNc4ncc(C(F)(F)F)cc4Cl)c3C[C@H]2CN1C(=O)c1ccccc1 -0.816

State the recorded z-score for this entry: COCCOC(=O)N1C(=O)[C@@]2(c3cc(C#CC4=CCCCC4)ccc31)[C@H](c1ccc(OCCO)cc1)N1[C@H](c3ccccc3)[C@H](c3ccccc3)OC(=O)[C@H]1[C@@H]2C(=O)N1CCc2cc(OC)c(OC)cc2C1 0.796

State the recorded z-score for this entry: CCCCCCCCCCC(O)C1C=CC2C(=O)NC(=O)C2N1Nc1ccc(Cl)cc1Cl (stereo not drawn) -1.27

State the recorded z-score for this entry: CN1C(=O)C2C=CC(C(O)c3ccccc3)N(N3CCCCC3)C2C1=O (stereo not drawn) -1.4

State the recorded z-score for this entry: COCCCNC(=O)[C@@]1(CCS(=O)(=O)c2ccccc2)N=C(c2ccc(OCCCO)cc2)O[C@H]1c1ccccc1N=[N+]=[N-] 0.863

State the recorded z-score for this entry: COCCOC(=O)N1C(=O)[C@@]2(c3cc(C#CC4(O)CCCCCC4)ccc31)[C@H](c1ccccc1OCCO)N1[C@H](c3ccccc3)[C@H](c3ccccc3)OC(=O)[C@H]1[C@@H]2C(=O)N1CCc2cc(OC)c(OC)cc2C1 -0.405

State the recorded z-score for this entry: C=CCC(OC(C)=O)[C@@H]1[C@@H](N(Cc2ccc(-c3cccc(C(F)(F)F)c3)o2)C(=O)Cc2ccc(OC)cc2)c2cc(OCCCO)ccc2N1C(=O)c1ccc2ccccc2c1 (stereo partly drawn) 0.489

State the recorded z-score for this entry: CC1CC/C=C\[C@H]2OC34C=CCN(Cc5ccccc5)C(=O)[C@H]3N(C(C)CO)C(=O)[C@@H]4C2C(=O)O1 (stereo partly drawn) 1

State the recorded z-score for this entry: O=C(NC1CC1)[C@@H]1c2ccccc2C(=O)N(Cc2cc(F)cc(C(F)(F)F)c2)[C@H]1c1ccc(CO)cc1 -0.664

State the recorded z-score for this entry: COC(=O)c1c(CC[C@@H](CO)NC(=O)N[C@H](Cc2ccccc2)Cn2cc(-c3ccccn3)nn2)oc(C(C)=O)c1C(=O)OC -0.793

State the recorded z-score for this entry: O=C1OCCC=C[C@H]2OC34C=CCN(CCN5CCOCC5)C(=O)[C@H]3N(CCCCCO)C(=O)[C@@H]4C12 (stereo partly drawn) 0.732

State the recorded z-score for this entry: COc1ccc(CCNC(=O)[C@@]2(C)c3ccccc3C(=O)N(c3ccc(C)cn3)[C@H]2c2ccc(CO)cc2)cc1 0.737

State the recorded z-score for this entry: CC(=O)n1cc(C(O)C2C=CC3C(=O)NC(=O)C3N2Nc2ccccn2)c2ccccc21 (stereo not drawn) -0.109

State the recorded z-score for this entry: COC(=O)[C@@]1(Cc2ccc(OC)cc2)[C@H]2c3cc(C(=O)N4CCCC4)n(CCSCCO)c3C[C@H]2CN1C(=O)c1ccccc1 -0.739

State the recorded z-score for this entry: COCC(=C=CC[C@@H](O)c1ccc(OCCO)cc1)C[C@@H](O)c1ccccn1 0.0639

State the recorded z-score for this entry: CC(C)C(=C=CC[C@H](O)c1ccc(CO)o1)CCO -0.741

State the recorded z-score for this entry: C=C(CCCC)/C(=C/C[C@H](OC(C)=O)c1ccccc1OCCO)c1cnc2ccccc2c1 -0.742

State the recorded z-score for this entry: COC(=O)C(CC#Cc1ccc2c(c1)[C@]1(C(=O)N2)[C@H](c2ccccc2OCCO)N2[C@H](c3ccccc3)[C@H](c3ccccc3)OC(=O)[C@H]2[C@@H]1C(=O)O)C(=O)OC 0.905

State the recorded z-score for this entry: CO[C@H]1O[C@H](CO)[C@@H](OC(=O)Nc2ccccc2-c2ccccc2)[C@H](OC(=O)Nc2ccccc2-c2ccccc2)[C@@H]1OC(=O)Nc1ccccc1-c1ccccc1 0.434
